target: T1, human MSLN-FL-his protein (human, UniProt Q13421 296-580); assay: competitive ELISA; row Tab021; note: test concentration or dose not given here
T1 construct: made in HEK293E cells, purified on nickel column; also called hMSLN-FL-his; human MSLN full-length protein; not shown: His tag
T1 sequence (Q13421 other isoform, or with tags, fused parts or gaps): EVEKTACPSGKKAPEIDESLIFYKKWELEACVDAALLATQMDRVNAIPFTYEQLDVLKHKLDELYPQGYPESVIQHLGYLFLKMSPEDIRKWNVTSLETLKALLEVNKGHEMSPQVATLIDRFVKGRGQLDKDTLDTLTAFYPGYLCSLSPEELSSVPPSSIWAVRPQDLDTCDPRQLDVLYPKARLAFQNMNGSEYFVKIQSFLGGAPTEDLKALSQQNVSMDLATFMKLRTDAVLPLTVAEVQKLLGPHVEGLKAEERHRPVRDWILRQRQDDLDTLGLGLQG
Here the recorded competition rate is given for each entry.
Write the answer as a number in %, unit excluded.

[Q] Could you share which competition rate value was measured for S009-F8-36.12 (antibody, human IgG1, kappa, V domains shown, human-murine chimeric antibody, human IgG1/kappa constant regions) VH: EVQLQQSGPELVKPGASVKISCKASGYTFTDYYMNWVKQSHGKSLEWIGDINPNNGGTSYNQKFKGKATLTVDKSSSTAYMELRSLTSEDSAVYYCASWGYGSSSRGYFDYWGQGTTLTVSS VL: QIVLSQSPAILSASPGEKVTMTCRASSSVSYMHWYQQKPGSSPKPWIYATSNLASGVPARFSGSGSGTSYSLTISRVEAEDAATYYCQQWSSNPWTFGGGTKLEIKR ?
[A] 6.4

[Q] # input binder: S009-F8-22.23 (antibody, human IgG1, kappa, V domains shown, human-murine chimeric antibody, human IgG1/kappa constant regions) VH: QVQLKQSGPGLVQPSQSLSITCTVSGFSLFSYGVHWVRQSPGKGLEWLGVIWSGGSTDYNAAFISRLSISKDNSKSQVFFKMNSLQADDTAMYYCARNGGSMITTLYYAMDYWGQGTSVTVSS VL: DVVMTQTPLSLPVSLGDQASISCRSSQSLVHSYGNTYLHWYLQKPGQSPKLLIYKVSNRFSGVPDRFSGSGSGTDFTLKISRVEAEDLGVYFCSQSTHIPFTFGGGTKLEIKR ; wanted: its competition rate
[A] 11.4

[Q] If you can, please state the reported competition rate value of S009-F8-32.3 (antibody, human IgG1, kappa, V domains shown, human-murine chimeric antibody, human IgG1/kappa constant regions) VH: QVQLKESGPGLVAPSQSLSITCTVSGFSLSSYAISWVRQPPGKGLEWLGVIWTGGGTNYNSALKSRLSISKDNSKSQVFLKMNSLQTDDTARFYCARNNYGRLDYAMDYWGQGTSVTVSS VL: DVVMTQTPLSLPVSLGDQASISCRSSQSLVHGNGNTYLHWYLQKPGQSPKLLIYKVSNRFSGVPDRFSGSGSGTDFTLKISRVETEDLGVYFCSQSTHVPFTFGSGTKLEIKR .
[A] 10.9

[Q] // returns reported competition rate for input S009-F8-28.23 (antibody, human IgG1, kappa, V domains shown, human-murine chimeric antibody, human IgG1/kappa constant regions) VH: EVQLVESGGDLVKPGGSLKLSCAASGFTFSSYAMSWVRQTPEKRLEWVATISDGGSYTYYPDNVEGRFTISRDNAKNNLYLQMSHLKSEDTAMYYCAGDRGYSYALDYWGQGTSVTVSS VL: NIMMTQSPSSLAVSAGEKVTMSCKSSQSVLYSSNQKNYLAWYQQKPGQSPKLLIYWASTRESGVPDRFTGSGSGTDFTLTISSVQAEDLAVYYCHQYLSSLTFGAGTKLELKR
[A] 7.7
